Test system: Staphylococcus aureus
method-notes: Antibacterial activity against Staphylococcus aureus MLS16 MTCC 2940 after 24 hrs by well diffusion method
Assay type: functional
experimental-context: MLS16 MTCC 2940, 24 h
Measured MIC by item
property-label: MIC (µg/mL)

{"compound": "Cc1ccc(-c2nn(-c3ccccc3)cc2C2c3c(n(C)c(=O)n(C)c3=O)N=CN2c2ccc(C)cc2)cc1 (centres undefined)", "target-or-test-system": "Staphylococcus aureus", "property-label": "MIC", "inequality-symbol": "=", "value": 15.6}
{"compound": "COc1ccc(N2C=Nc3c(c(=O)n(C)c(=O)n3C)C2c2cn(-c3ccccc3)nc2-c2cccs2)cc1 (centres undefined)", "target-or-test-system": "Staphylococcus aureus", "property-label": "MIC", "inequality-symbol": "=", "value": 15.6}
{"compound": "Cn1c2c(c(=O)n(C)c1=O)C(c1cn(-c3ccccc3)nc1-c1ccc(Cl)cc1)N(c1cccc([N+](=O)[O-])c1)C=N2 (centres undefined)", "target-or-test-system": "Staphylococcus aureus", "property-label": "MIC", "inequality-symbol": ">", "value": 125}
{"compound": "Cc1ccc(N2C=Nc3c(c(=O)n(C)c(=O)n3C)C2c2cn(-c3ccccc3)nc2-c2ccc([N+](=O)[O-])cc2)cc1 (centres undefined)", "target-or-test-system": "Staphylococcus aureus", "property-label": "MIC", "inequality-symbol": "=", "value": 7.8}
